Cited source for all entries: PubChem BioAssay AID1159580

experiment: chemical genetic growth profiling, strain panel (AID 1159580);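 also: tested at 20 µM; growth read once vehicle control cultures reached saturation at 30 °C; lower values mean less growth of the strain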; details: S. cerevisiae deletion strains, growth OD, locus YER016W, strain bim1
Screen size: about 5,500 compounds; about 2,000 (36%) were called active. Not shown: some 18% with an inconclusive outcome. Rule as the data show it: active = normalized growth mostly below about 0.91 (no sharp cut-off); inconclusive = no clear call, values can overlap the other calls; inactive = mostly above about 0.92. The list shows a part of the results.
Allowed answers: Y = active, N = inactive

// known answers, use as guide
How was C[C@@H]1CC[C@H]2C(C)(C)C3CC12CC[C@@]3(C)O (stereo not given in full) classified in this test? Y

How was COc1ccc2c(c1)OCC(Cc1ccc(OC)c(O)c1)C2=O (stereo not given) classified in this test? N

How was Cc1oncc1C(=O)Nc1ccc(C(F)(F)F)cc1 classified in this test? N

How was COc1cc2c(cc1OC)C1(O)C(=O)c3ccc(O)c(C(=O)O)c3OC1CO2 (stereo not given) classified in this test? N

How was CCCNC(=O)NS(=O)(=O)c1ccc(Cl)cc1 classified in this test? N

How was C[C@]12C=CC(=O)C=C1CCC1C2[C@@H](O)C[C@@]2(C)C1CC[C@]2(O)C(=O)CO (stereo not given in full) classified in this test? N

Continuing:
How was O=C(O)COc1ccc(Cl)cc1Cl classified in this test? N

How was C[C@]12CCC3c4ccc(OC(=O)c5ccccc5)cc4CCC3C1CCC2=O (stereo not given in full) classified in this test? N

How was COC(=O)[C@@H]1OC(=O)C2OC23[C@@]1(C)CCC1[C@]2(C)C(C[C@@H](O)[C@]13C)C(C)(C)[C@H](OC(C)=O)C[C@@H]2OC(C)=O (stereo not given in full) classified in this test? N

How was CC(=O)O[C@]1(C)CC[C@@]23CC1C(C)(C)[C@@H]2CC[C@H]3C classified in this test? N
